What inhibition at 10 µM was measured for each of the following?
target: recombinant Cz (cruzain) (Trypanosoma cruzi); construct: Cz was expressed and purified as described in da Silva et al; made in house; experiment: biochemical; details: read-out: Cz inhibition (%), 10 µM
Sequence (P25779 123-337 limits assumed): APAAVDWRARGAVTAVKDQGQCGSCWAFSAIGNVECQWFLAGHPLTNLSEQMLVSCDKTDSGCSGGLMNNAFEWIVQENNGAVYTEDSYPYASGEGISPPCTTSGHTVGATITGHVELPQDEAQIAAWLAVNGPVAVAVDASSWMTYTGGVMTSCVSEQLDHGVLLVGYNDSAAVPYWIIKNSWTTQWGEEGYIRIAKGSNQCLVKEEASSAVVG
Respond with the bare value in %.

Lookup: I am curious: what inhibition at 10 µM value has been reported for COc1ccc(/C(C)=N/NC(N)=S)c(OC)c1 ?
Found: 39.3

Lookup: Then C/C(=N\Nc1nc(C)cs1)c1ccc(Br)cc1 ?
Found: 53

Lookup: Then COc1cccc(/C(C)=N/NC(N)=[Se])c1 ?
Found: 101

Lookup: Then C/C(=N\Nc1nc(C)cs1)c1ccc(C)cc1 ?
Found: 36.8

Lookup: Then C/C(=N\Nc1nc(C)cs1)c1ccsc1 ?
Found: 31.6

Lookup: Then C/C(=N\Nc1nc(C)c[se]1)c1ccc(C)cc1 ?
Found: 28.6

Lookup: Then C/C(=N\NC(N)=S)c1ccc(F)c(F)c1 ?
Found: 99.8

Lookup: Then C/C(=N\NC(N)=[Se])c1csc2ccccc12 ?
Found: 93.7

Lookup: Then C/C(=N\NC(N)=[Se])c1cccc([N+](=O)[O-])c1 ?
Found: 104

Lookup: Then C/C(=N\NC(N)=[Se])c1ccc(C#N)cc1 ?
Found: 104

Lookup: Then C/C(=N\Nc1nc(C)cs1)C12CC3CC(CC(C3)C1)C2 ?
Found: 30.5

Lookup: Then C/C(=N\NC(N)=[Se])c1ccc(F)c(F)c1 ?
Found: 102

Lookup: Then COc1ccc(C/C(C)=N/NC(N)=S)cc1 ?
Found: 56.2

Lookup: Then COc1ccc(/C(C)=N/Nc2nc(C)cs2)c(OC)c1 ?
Found: 34.2

Lookup: Then C/C(=N\Nc1nc(C)cs1)c1ccc(C#N)cc1 ?
Found: 89.8

Lookup: Then C/C(=N\Nc1nc(C)cs1)c1ccc(C(F)(F)F)cc1 ?
Found: 41.6

Lookup: Then COc1ccc(/C(C)=N/Nc2nc(C)cs2)cc1 ?
Found: 37.5

Lookup: Then C/C(=N\NC(N)=S)c1ccc(C(F)(F)F)cc1 ?
Found: 85.8

Lookup: Then C/C(=N\Nc1nc(C)cs1)c1csc2ccccc12 ?
Found: 27.9

Lookup: Then C/C(=N\NC(N)=[Se])c1cc2ccccc2o1 ?
Found: 102

Lookup: Then C/C(=N\NC(N)=S)c1ccc([N+](=O)[O-])cc1 ?
Found: 97.6

Lookup: Then COc1cccc(/C(C)=N/Nc2nc(C)c[se]2)c1 ?
Found: 62.9

Lookup: Then C/C(=N\NC(N)=S)c1cc2ccccc2o1 ?
Found: 99.3

Lookup: Then C/C(=N\Nc1nc(C)c[se]1)c1csc2ccccc12 ?
Found: 101

Lookup: Then COc1cccc(/C(C)=N/N=C(/N)S)c1 ?
Found: 95.3

Lookup: Then C/C(=N\Nc1nc(C)cs1)c1cccc([N+](=O)[O-])c1 ?
Found: 96.9

Lookup: Then COc1cccc(/C(C)=N/Nc2nc(C)cs2)c1 ?
Found: 45.1

Lookup: Then COc1ccc(/C(C)=N/NC(N)=[Se])cc1 ?
Found: 98.9

Lookup: Then C/C(=N\Nc1nc(C)c[se]1)c1ccc(C(F)(F)F)cc1 ?
Found: 95.2

Lookup: Then C/C(=N\Nc1nc(C)c[se]1)c1ccc(Br)cc1 ?
Found: 98.6

Lookup: Then COc1ccc(/C(C)=N/NC(N)=[Se])c(OC)c1 ?
Found: 92.5

Lookup: Then C/C(=N\Nc1nc(C)cs1)c1ccc([N+](=O)[O-])cc1 ?
Found: 96.7

Lookup: Then C/C(=N\Nc1nc(C)cs1)c1cccc(Cl)c1 ?
Found: 97.5

Lookup: Then COc1ccc(/C(C)=N/NC(N)=S)cc1 ?
Found: 87.1

Lookup: Then C/C(=N\Nc1nc(C)cs1)c1ccc(F)c(F)c1 ?
Found: 79.4

Lookup: Then C/C(Cc1cccc(Cl)c1)=N\NC(N)=S ?
Found: 72.3

Lookup: Then C/C(=N\Nc1nc(C)c[se]1)c1ccc(F)c(F)c1 ?
Found: 102

Lookup: Then C/C(=N\NC(N)=[Se])c1ccsc1 ?
Found: 90.1

Lookup: Then C/C(=N\Nc1nc(C)c[se]1)c1cc2ccccc2o1 ?
Found: 98.5

Lookup: Then C/C(=N\NC(N)=S)c1cccc([N+](=O)[O-])c1 ?
Found: 100

Lookup: Then C/C(=N\NC(N)=S)c1ccc(C)cc1 ?
Found: 74.8
